# system-name: Jak2 (UniProt O60674)
# Sequence (O60674 whole entry, looked up): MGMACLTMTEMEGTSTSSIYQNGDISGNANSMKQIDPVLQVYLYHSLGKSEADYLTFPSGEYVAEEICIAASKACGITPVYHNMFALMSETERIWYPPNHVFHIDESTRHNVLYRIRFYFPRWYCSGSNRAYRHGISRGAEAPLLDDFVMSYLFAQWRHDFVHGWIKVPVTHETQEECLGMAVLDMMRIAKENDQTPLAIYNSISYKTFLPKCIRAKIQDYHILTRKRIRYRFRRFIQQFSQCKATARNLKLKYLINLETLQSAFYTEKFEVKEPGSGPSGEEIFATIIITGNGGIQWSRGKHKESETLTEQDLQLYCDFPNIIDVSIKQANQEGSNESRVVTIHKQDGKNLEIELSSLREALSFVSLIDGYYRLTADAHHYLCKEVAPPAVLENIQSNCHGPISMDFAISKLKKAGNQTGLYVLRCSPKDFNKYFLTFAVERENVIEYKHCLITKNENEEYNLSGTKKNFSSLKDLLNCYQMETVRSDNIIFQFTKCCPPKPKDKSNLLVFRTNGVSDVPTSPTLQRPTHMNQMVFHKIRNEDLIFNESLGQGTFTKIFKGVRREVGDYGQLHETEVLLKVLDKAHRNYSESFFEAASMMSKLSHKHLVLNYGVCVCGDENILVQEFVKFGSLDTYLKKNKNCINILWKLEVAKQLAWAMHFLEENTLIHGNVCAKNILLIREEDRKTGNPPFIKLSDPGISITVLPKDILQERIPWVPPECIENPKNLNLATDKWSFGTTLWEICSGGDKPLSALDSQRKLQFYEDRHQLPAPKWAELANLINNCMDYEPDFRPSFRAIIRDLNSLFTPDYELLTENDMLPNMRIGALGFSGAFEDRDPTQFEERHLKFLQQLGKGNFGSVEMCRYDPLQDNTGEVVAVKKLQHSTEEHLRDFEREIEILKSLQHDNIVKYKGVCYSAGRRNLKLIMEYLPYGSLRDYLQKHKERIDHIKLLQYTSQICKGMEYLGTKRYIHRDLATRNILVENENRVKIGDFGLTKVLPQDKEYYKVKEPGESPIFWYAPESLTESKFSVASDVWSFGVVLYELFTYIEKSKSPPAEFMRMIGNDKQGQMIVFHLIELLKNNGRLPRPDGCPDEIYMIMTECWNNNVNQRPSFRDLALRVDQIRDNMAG
# assay-method-text: phosphorylation enrichment, bacterial display (enrichment ratio); higher = better substrate or ligand; peptides without Tyr show the background;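 note: 11-residue human phosphosite peptides and single-mutation variants displayed on the E. coli surface, counted by deep sequencing, each peptide's frequency after selection divided by its frequency in the unselected input library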;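 note: frequency after pTyr selection over input frequency; kinase dosed for 20-30% of maximal phosphorylation in three min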
recorded-endpoint: phosphorylation enrichment
One number for each entry.

Consider the following illustrative entries.
1. MVSLFYGTAIF [OR10C1_Y251_L255I]
1.4
2. FVFSFYHAFSG [ACTN4_Y265_S262F_YF]
1.25
3. DLDLTSIFPNI [PTEN_Y27_Y27S_YF]
0.726

Below are 3 sequences. Give each one its phosphorylation enrichment.
1. FVSIVYNDSGE [TSC2_Y1650]
2. YADGVYQALEE [DUOX2_Y70]
3. ARAGEYGAEAL [HBA1_Y25_H21R]

0.942
1.11
0.697
